Source of measurements: patent US9340577B2

Quick reference for pIC50 among some sequences
- target.system: A*6801 (Homo sapiens, UniProt P04439, A269V/D185E/E176V/E277Q/E87N/F33Y/G231S/I121M/I166T/I218V/L180W/L300P/L318F/N151K/P208A/P217A/Q86R/R169H/T345S)
- measurement.protocol: biochemical
- Assay type: binding
pIC50: −log10 of the molar value. No end group written: not given here.
attribute.measured: pIC50

chain.sequence	attribute.measured	value
GQGVSIEWRK [Peptide 9017.0219]	pIC50	5.65
RINTWKSLVK [Peptide 9017.0215]	pIC50	4.94
ATLESITKK [Peptide 78.0300]	pIC50	5.71
KVSEFRWYR [Peptide 78.0281]	pIC50	7.64
VFADLRIVYR [Peptide 78.0073]	pIC50	6.71
SVRKLTEDR [Peptide 9017.0106]	pIC50	6.65
RFHNIAGHYR [Peptide 78.0097]	pIC50	6.82
RILSTYLGR [Peptide 9017.0072]	pIC50	6.34
AFTDLTIVYR [Peptide 78.0052]	pIC50	6.68
LALTALIKPK [Peptide 9017.0227]	pIC50	5.46
KSCFAMSLIK [Peptide 88.0190]	pIC50	4.91

---

- target.system: A31 (A*3101) (Homo sapiens, UniProt P04439, A270S/D185E/E176V/E277Q/F33T/G231S/G80R/H175R/I121M/I218V/I322F/K168Q/L300P/L318F/M331R/P217A/Q94H/R138Q/T323A/T345S/T97I/V358M)
- measurement.protocol: biochemical
- Assay type: binding
No end group written: not given here.
attribute.measured: log10 of IC50 (log10 of the value in nM)

chain.sequence	log10 of IC50
VTIRVAGQVK [Peptide 1516.04]	3.66
SFSELVRPFK [Peptide 1587.03]	0.30
RVHSSHLKSKK [Peptide 1556.75]	2.48
KQNPDIVIY [Peptide 1595.10]	3.66
KLFLKGVPKK [Peptide 1587.40]	3.02
KSCFAMSLIK [Peptide 88.0190]	2.49
AACWRSRRR [Peptide 78.0322]	2.61
RLKAICIEK [Peptide 1587.01]	1.30
GTFKCSAGK [Peptide 88.0373]	2.79
KLFLKGVPK [Peptide 1587.41]	0.18
ALQGLAQSR [Peptide 88.0398]	2.49
MLIRYTCGK [Peptide 88.0377]	3.09
SVCMGGMNR [Peptide 1556.60]	1.96
VVQQLLMGA [Peptide 78.0338]	3.45
ALTALITPK [Peptide 9017.0099]	2.64
SQRLNACQNK [Peptide 1589.34]	3.78
QQLLFIHFR [Peptide 9017.0111]	0.30
LTTNIHPAK [Peptide 88.0347]	2.36

---

- target.system: A*6801 (Homo sapiens, UniProt P04439, A269V/D185E/E176V/E277Q/E87N/F33Y/G231S/I121M/I166T/I218V/L180W/L300P/L318F/N151K/P208A/P217A/Q86R/R169H/T345S)
- measurement.protocol: biochemical
- Assay type: binding
No end group written: not given here.
Quick reference for IC50 among some sequences
attribute.measured: IC50 (nM)

chain.sequence	display.unit	value
FVSFLSALK [Peptide 1587.37]	nM	13
DSNAQAFLK [Peptide 88.0379]	nM	39
LTNILNVLK [Peptide 1587.02]	nM	12
MTDAGTWDK [Peptide 88.0400]	nM	28
VTIRVGGQLR [Peptide 1516.07]	nM	28
QQQMFLGTVK [Peptide 88.0219]	nM	1460
NTMDYTNWK [Peptide 88.0425]	nM	13
EFMSFLTALK [Peptide 1587.10]	nM	20
